# key: entry, value: % Phosphatase Activity (compared to DMSO) PRL-1
# ASSAYED SYSTEM: recombinant PRL-1 (Homo sapiens)
# Construct: 6xHis (N, cleaved yes); made in house; host or cells: E. coli One Shot BL21 Star
# METHOD DESCRIPTION: In vitro phosphatase assay (DiFMUP hydrolysis), PRL-1; further: test concentration or dose not given here
# Format: biochemical
# DETAILS: FDA-approved drug screen; compared to DMSO
Counter-ions that a name gives are not always drawn.
EXPERIMENTAL READOUT: % Phosphatase Activity (compared to DMSO) PRL-1 (%)

COMPOUND	ASSAYED SYSTEM	ASSAY RESULT
Cc1nc2n(c(=O)c1CCN1CCC(c3noc4cc(F)ccc34)CC1)CCCC2O (stereo not shown)	recombinant PRL-1 (Homo sapiens)	102
CCN(CC)C(=O)/C(C#N)=C/c1cc(O)c(O)c([N+](=O)[O-])c1	recombinant PRL-1 (Homo sapiens)	94
COC(=O)N[C@H](C(=O)N[C@@H](Cc1ccccc1)[C@@H](O)CN(Cc1ccc(-c2ccccn2)cc1)NC(=O)[C@@H](NC(=O)OC)C(C)(C)C)C(C)(C)C	recombinant PRL-1 (Homo sapiens)	94
CN1C2CCCC1CC(NC(=O)c1nn(C)c3ccccc13)C2 (stereo not shown) [Granisetron HCl]	recombinant PRL-1 (Homo sapiens)	86
Cc1nc(C(=O)NCC(=O)O)c(O)c2ccc(Oc3ccccc3)cc12	recombinant PRL-1 (Homo sapiens)	136
CC(=O)OCC(=O)[C@@]12OC(C)(C)O[C@@H]1C[C@H]1[C@@H]3C[C@H](F)C4=CC(=O)C=C[C@]4(C)[C@@]3(F)[C@@H](O)C[C@@]12C [Fluocinonide]	recombinant PRL-1 (Homo sapiens)	91
COc1ccnc(C[S+]([O-])c2nc3ccc(OC(F)F)cc3[nH]2)c1OC (stereo not shown) [Pantoprazole sodium]	recombinant PRL-1 (Homo sapiens)	97

----------
# ASSAYED SYSTEM: recombinant PRL-1 (Homo sapiens, UniProt Q93096)
# Construct: 6xHis (N, cleaved yes); made in house; host or cells: E. coli One Shot BL21 Star
# Sequence (Q93096 whole entry): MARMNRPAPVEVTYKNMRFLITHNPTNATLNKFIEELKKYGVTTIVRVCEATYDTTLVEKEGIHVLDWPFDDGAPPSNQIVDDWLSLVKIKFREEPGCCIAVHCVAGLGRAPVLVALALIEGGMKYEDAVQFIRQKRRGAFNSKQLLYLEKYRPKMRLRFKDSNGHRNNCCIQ
# METHOD DESCRIPTION: In vitro phosphatase assay (DiFMUP hydrolysis), PRL-1; further: test concentration or dose not given here
# Type: biochemical
# DETAILS: FDA-approved drug screen; activity compared to DMSO
EXPERIMENTAL READOUT: % Phosphatase Activity (compared to DMSO) PRL-1

MOLECULE	ASSAY RESULT
C[C@H](Cc1cc2c(c(C(N)=O)c1)N(CCCO)CC2)NCCOc1ccccc1OCC(F)(F)F [Silodosin]	117%
CCCc1nc2c(C)cc(-c3nc4ccccc4n3C)cc2n1Cc1ccc(-c2ccccc2C(=O)O)cc1 [Telmisartan]	86%
Nc1ccc(S(=O)(=O)Nc2ccccn2)cc1 [Sulfapyridine]	106%
CS(=O)(=O)c1ccc([C@@H](O)[C@@H](CO)NC(=O)C(Cl)Cl)cc1 [Thiamphenicol]	103%
CC[C@]1(O)C[C@H]2CN(CCc3c([nH]c4ccccc34)[C@@](C(=O)OC)(c3cc4c(cc3OC)N(C=O)[C@H]3[C@@](O)(C(=O)OC)[C@H](OC(C)=O)[C@]5(CC)C=CCN6CC[C@]43[C@@H]65)C2)C1 [Vincristine]	85%
Cc1cc(-n2c(=O)[nH]c(=O)n(C)c2=O)ccc1Oc1ccc(SC(F)(F)F)cc1 [Toltrazuril]	88%
NCCS(=O)(=O)O [Taurine]	97%
O=c1cc[nH]c(=O)[nH]1 [Uracil]	100%
C=C[C@]1(C)C[C@@H](OC(=O)CSC(C)(C)CNC(=O)[C@H](N)C(C)C)[C@]2(C)[C@H](C)CC[C@]3(CCC(=O)[C@H]32)[C@@H](C)[C@@H]1O.Cl [Valnemulin HCl]	86%
Cl.O=C1Cc2cc(CCN3CCN(c4nsc5ccccc45)CC3)c(Cl)cc2N1 [Ziprasidone HCl]	91%
C[C@@H]1CCN(C(=O)CC#N)C[C@@H]1N(C)c1ncnc2[nH]ccc12 [Tofacitinib (CP-690550,Tasocitinib)]	117%
Cl.Cl.Clc1ccc(Nc2nnc(Cc3ccncc3)c3ccccc23)cc1 [Vatalanib (PTK787) 2HCl]	109%
NS(=O)(=O)Cc1noc2ccccc12 [Zonisamide]	104%
CCOC(=O)[C@@H](N)Cc1ccc(-c2cc(O[C@H](c3ccc(Cl)cc3-n3ccc(C)n3)C(F)(F)F)nc(N)n2)cc1.O=C(O)CNC(=O)c1ccccc1 [Telotristat Etiprate (LX 1606 Hippurate)]	106%
[H]/N=C(/N)NS(=O)(=O)c1ccc(N)cc1 [Sulfaguanidine]	97%
Cc1ccsc1C(=CCCN1CCC[C@@H](C(=O)O)C1)c1sccc1C [Tiagabine]	100%
